Tested on: VDR homodimer (NR concentration 270 nM)
Test: PBM binding z-score (relative to random genomic background probes); higher = stronger binding; sequences stand for … in GC…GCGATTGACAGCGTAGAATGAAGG
observable: PBM binding z-score

Ask: For the sequence shown here, `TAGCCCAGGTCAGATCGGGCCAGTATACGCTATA` , give the reported PBM binding z-score.
Result: -0.0558

Ask: Then this sequence: `TCTTGTAGATCAACAGGAGGTGAAGAAAGATCGA`
Result: -0.884

Ask: Then this sequence: `GCTAGCAGGCCATTTAGGTCACTCAATGACGGGC`
Result: 0.244

Ask: Then this sequence: `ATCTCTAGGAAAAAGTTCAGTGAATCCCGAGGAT`
Result: 1.42

Ask: Then this sequence: `TGGAGTAGGTTAGTCGGGGCATTCAGCCAACATA`
Result: 1.24

Ask: Then this sequence: `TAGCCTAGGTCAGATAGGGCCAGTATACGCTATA`
Result: -0.0363

Ask: Then this sequence: `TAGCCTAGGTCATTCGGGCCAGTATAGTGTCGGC`
Result: 1.49

Ask: Then this sequence: `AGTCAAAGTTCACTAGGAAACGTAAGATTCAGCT`
Result: 3.64

Ask: Then this sequence: `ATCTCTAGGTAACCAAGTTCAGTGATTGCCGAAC`
Result: 2.76

Ask: Then this sequence: `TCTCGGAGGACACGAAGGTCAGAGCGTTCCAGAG`
Result: 1.2

Ask: Then this sequence: `ATCGCAAGGTCGAGGTGAGTATAGAGAAAGGGAA`
Result: 0.322

Ask: Then this sequence: `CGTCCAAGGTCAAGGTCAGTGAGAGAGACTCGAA`
Result: 3.5
